Source of measurements: patent US20020137929A1

# Tested on: CYPIR (Rice Flatsedge)
# RUN DESCRIPTION: Preemergence weed control under flooded paddy conditions
# Format: in vivo, Cyperus iria
# DETAILS: 0.1250 kg/ha, rated 3-4 weeks after treatment
READOUT KIND: herbicidal effect rating, CYPIR
Quick one: just the number, no unit, thanks!

Query: Entry Cn1c(C(F)(F)F)cc(=O)n(-c2cc(N=C3SCC(=O)N3Cc3ccccc3Cl)c(Cl)cc2F)c1=O [Compound 143] : reported herbicidal effect rating, CYPIR = ?
Response: 4.0

Query: Entry CCOC(=O)CN1C(=O)C(C(=O)OCC)SC1=Nc1cc(-n2c(=O)cc(C(F)(F)F)n(C)c2=O)c(F)cc1Cl (stereo not shown) [Compound 127] : reported herbicidal effect rating, CYPIR = ?
Response: 4.0

Query: Entry COCCN1C(=O)CSC1=Nc1cc(-n2c(=O)cc(C(F)(F)F)n(C)c2=O)c(F)cc1Cl [Compound 155] : reported herbicidal effect rating, CYPIR = ?
Response: 0.0

Query: Entry C=CCN1C(=O)C(CC(=O)NO)SC1=Nc1cc(-n2c(=O)cc(C(F)(F)F)n(C)c2=O)c(F)cc1Cl (stereo not shown) [Compound 161] : reported herbicidal effect rating, CYPIR = ?
Response: 5.0

Query: Entry C#CC(C)N1C(=O)CSC1=Nc1cc(-n2c(=O)cc(C(F)(F)F)n(C)c2=O)c(F)cc1Cl (stereo not shown) [Compound 165] : reported herbicidal effect rating, CYPIR = ?
Response: 9.0

Query: Entry Cn1c(C(F)(F)F)cc(=O)n(-c2cc(N=C3SCC(=O)N3C3CC3)c(Cl)cc2F)c1=O [Compound 152] : reported herbicidal effect rating, CYPIR = ?
Response: 0.0

Query: Entry CCCN1C(=O)CSC1=Nc1cc(-n2c(=O)cc(C(F)(F)F)n(C)c2=O)c(F)cc1Cl [Compound 171] : reported herbicidal effect rating, CYPIR = ?
Response: 9.0

----------
# Tested on: GLXMAW (Soybean, Williams)
# RUN DESCRIPTION: Postemergence herbicidal evaluation
# Assay type: in vivo, Glycine max, (L.) Merr. cv Williams
# DETAILS: Rate 0.0630 kg/ha
READOUT KIND: Postemergence herbicidal rating GLXMAW
Quick one: just the number, no unit, thanks!

Query: Entry CCOP(=O)(CN1C(=O)CSC1=Nc1cc(-n2c(=O)cc(C(F)(F)F)n(C)c2=O)c(F)cc1Cl)OCC : reported Postemergence herbicidal rating GLXMAW = ?
Response: 9.0

Query: Entry Cn1c(C(F)(F)F)cc(=O)n(-c2cc(/N=C3/SCC(=O)N3CC(=O)O)c(Cl)cc2F)c1=O : reported Postemergence herbicidal rating GLXMAW = ?
Response: 6.0

Query: Entry Cn1c(C(F)(F)F)cc(=O)n(-c2cc(N=C3SCC(=O)N3CCC(=O)O)c(Cl)cc2F)c1=O : reported Postemergence herbicidal rating GLXMAW = ?
Response: 6.5

Query: Entry CCOC(=O)CN1C(=O)C(CC(=O)NC)SC1=Nc1cc(-n2c(=O)cc(C(F)(F)F)n(C)c2=O)c(F)cc1Cl (centres unmarked) : reported Postemergence herbicidal rating GLXMAW = ?
Response: 9.0

Query: Entry C#CCOC(=O)CC1SC(=Nc2cc(-n3c(=O)cc(C(F)(F)F)n(C)c3=O)c(F)cc2Cl)N(CC(=O)OCC)C1=O (centres unmarked) : reported Postemergence herbicidal rating GLXMAW = ?
Response: 9.0

Query: Entry COC(=O)CCN1C(=O)CSC1=Nc1cc(-n2c(=O)cc(C(F)(F)F)n(C)c2=O)c(F)cc1Cl : reported Postemergence herbicidal rating GLXMAW = ?
Response: 8.5

Query: Entry Cn1c(C(F)(F)F)cc(=O)n(-c2cc(N=C3SCC(=O)N3[C@@H](Cc3ccccc3)C(=O)O)c(Cl)cc2F)c1=O : reported Postemergence herbicidal rating GLXMAW = ?
Response: 9.0

Query: Entry CCOC(=O)COc1ccccc1CC1S/C(=N/c2cc(-n3c(=O)cc(C(F)(F)F)n(C)c3=O)c(F)cc2Cl)N(CC(=O)OCC)C1=O (centres unmarked) : reported Postemergence herbicidal rating GLXMAW = ?
Response: 6.5
